Source listed as ChEMBL document CHEMBL1961873.

I'd appreciate it if you could supply inhibition values for the items below.
- target: Protein-tyrosine kinase 2-beta (Homo sapiens);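 further: reported as mean percent inhibition of PYK2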
- assay.setup: at 0.1 µM
Record the value in %, omitting the unit from your answer.

The compound CCc1ccc(Oc2nccc(-c3c(-c4ccc(F)cc4)ncn3C3CCNCC3)n2)cc1 on Protein-tyrosine kinase 2-beta (Homo sapiens): inhibition was -1.83

// assay Protein-tyrosine kinase 2-beta (Homo sapiens), entry COc1cc2ncn(-c3cc(OCCc4ccccc4)c(C(N)=O)s3)c2cc1OC , inhibition value = 3.82

Entry C[C@@H](Oc1cc(-n2cnc3ccc(OCC4CCN(C)CC4)cc32)sc1C(N)=O)c1ccccc1Cl : inhibition on Protein-tyrosine kinase 2-beta (Homo sapiens) = 5.71

Lab entry: Protein-tyrosine kinase 2-beta (Homo sapiens) assay, compound O=C(Nc1ccc(Oc2ccc3[nH]c(NC(=O)c4ccccc4)nc3c2)cc1)Nc1cc(C(F)(F)F)ccc1F , inhibition = 5.27

The value of inhibition recorded for C/C(Nc1ccc(S(N)(=O)=O)cc1)=C1/C(=O)Nc2ccccc21 when tested on Protein-tyrosine kinase 2-beta (Homo sapiens) reads -1.67

The recorded inhibition with Protein-tyrosine kinase 2-beta (Homo sapiens) for Nc1nccc(-c2c(-c3ccc(F)cc3)ncn2C2CCC(O)CC2)n1 (centres undefined) was -2.8

Kindly note: Protein-tyrosine kinase 2-beta (Homo sapiens), NS(=O)(=O)c1ccc(Nc2cc(-c3ccc(O)c(F)c3)n[nH]2)cc1 , inhibition value reported: -2.28

Protein-tyrosine kinase 2-beta (Homo sapiens) inhibition of CN(C)CCCNc1nccc(-c2c(-c3ccc(F)cc3)nn3cc(C(F)(F)F)ccc23)n1 is -1.38

Summary line: O=C(NCC1CC1)c1ccc(-c2cccc(C(=O)NC3CC3)c2)cc1 , Protein-tyrosine kinase 2-beta (Homo sapiens), reported inhibition = 1.01

Summary: CN(C)c1ccc2c(c1)/C(=C/Nc1ccc(S(N)(=O)=O)cc1)C(=O)N2 , Protein-tyrosine kinase 2-beta (Homo sapiens), inhibition = 8.05

Here COc1ccc(C2=C(N3CCc4ccccc43)C(=O)NC2=O)cc1 was tested on Protein-tyrosine kinase 2-beta (Homo sapiens), and its inhibition came to 11.7

Test item COc1cc(Nc2ncc(-c3ccccc3)o2)cc(OC)c1OC ; Protein-tyrosine kinase 2-beta (Homo sapiens); reported inhibition was -6.53

The reported inhibition value, Protein-tyrosine kinase 2-beta (Homo sapiens), for Cc1ccc(C(=O)NC2CCC2)cc1-c1ccc(C(=O)NCC2CC2)cc1 reads 4.2

Item Fc1ccc(-c2nc3n(c2-c2ccncc2)CCS3)cc1 ; assay system Protein-tyrosine kinase 2-beta (Homo sapiens); inhibition reported as 9.18

Noted inhibition for CCS(=O)(=O)c1ccc(OC)c(Nc2ncc(-c3cccc(-c4ccccc4F)c3)o2)c1 , tested on Protein-tyrosine kinase 2-beta (Homo sapiens): 7.79

Measured inhibition for this entry COc1cccc(/C=N/Nc2ncnc3c2cnn3-c2cccc(OC)c2)c1 on Protein-tyrosine kinase 2-beta (Homo sapiens): 1

The observed inhibition for COC(=O)Nc1nc2ccc(Sc3ccc(NC(=O)Nc4cc(C(F)(F)F)ccc4F)cc3)cc2[nH]1 when tested with Protein-tyrosine kinase 2-beta (Homo sapiens) stands at 2.56

Let me check: NC(=O)Cc1ccccc1Oc1nccc(-c2c(-c3ccc(F)cc3)ncn2C2CCNCC2)n1 , system Protein-tyrosine kinase 2-beta (Homo sapiens), measured inhibition is 5.56

Record CCc1nccc2c1nc(-c1nonc1N)n2CC has Protein-tyrosine kinase 2-beta (Homo sapiens) inhibition equal to 3.87

###

- System: Platelet-derived growth factor receptor alpha (Homo sapiens), P16234 [T674I]
- Sequence (P16234 whole entry T674I): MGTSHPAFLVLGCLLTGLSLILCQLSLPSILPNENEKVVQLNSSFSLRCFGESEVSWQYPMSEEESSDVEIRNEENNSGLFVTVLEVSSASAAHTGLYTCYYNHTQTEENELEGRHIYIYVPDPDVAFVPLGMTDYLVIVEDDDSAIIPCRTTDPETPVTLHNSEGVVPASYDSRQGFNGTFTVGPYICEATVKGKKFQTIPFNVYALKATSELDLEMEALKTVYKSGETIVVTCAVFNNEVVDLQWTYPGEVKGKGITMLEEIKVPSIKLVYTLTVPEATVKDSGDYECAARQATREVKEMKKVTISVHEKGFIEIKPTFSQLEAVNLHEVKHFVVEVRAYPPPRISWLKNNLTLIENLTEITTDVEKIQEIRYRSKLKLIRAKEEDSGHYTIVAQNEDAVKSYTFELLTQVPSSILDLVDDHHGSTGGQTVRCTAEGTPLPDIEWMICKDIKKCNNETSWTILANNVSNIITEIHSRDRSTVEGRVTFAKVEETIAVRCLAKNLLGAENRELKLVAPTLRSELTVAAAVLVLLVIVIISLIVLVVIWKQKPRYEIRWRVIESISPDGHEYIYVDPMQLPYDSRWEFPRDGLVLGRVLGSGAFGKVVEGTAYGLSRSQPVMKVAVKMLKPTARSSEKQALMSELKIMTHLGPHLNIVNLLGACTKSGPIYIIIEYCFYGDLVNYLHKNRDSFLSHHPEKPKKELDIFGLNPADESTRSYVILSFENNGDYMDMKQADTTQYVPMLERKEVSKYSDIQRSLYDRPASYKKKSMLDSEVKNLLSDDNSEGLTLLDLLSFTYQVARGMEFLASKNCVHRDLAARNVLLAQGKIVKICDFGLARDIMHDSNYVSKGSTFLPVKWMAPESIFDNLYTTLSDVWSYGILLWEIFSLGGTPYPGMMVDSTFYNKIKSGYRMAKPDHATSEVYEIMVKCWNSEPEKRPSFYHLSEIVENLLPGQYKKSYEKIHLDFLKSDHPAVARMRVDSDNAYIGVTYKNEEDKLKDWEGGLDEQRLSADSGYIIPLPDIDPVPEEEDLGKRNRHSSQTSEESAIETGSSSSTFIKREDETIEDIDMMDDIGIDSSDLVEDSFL
- assay.setup: at 1 µM
Criterion met means recorded inhibition is 6% or above; Criterion not met means it is below 6%.

Hi, just wondering whether O=C1NC(=O)C(c2cccc(Cl)c2)=C1Nc1ccc(Cl)c(C(=O)O)c1 shows inhibition of 6% or higher.
Criterion not met

Answer whether inhibition of CS(=O)(=O)CCNCc1ccc(-c2ccc3ncnc(Nc4ccc(OCc5ccccc5)c(Br)c4)c3c2)o1 is greater than or equal to 6%.
Criterion not met

Check the entry COC(=O)Nc1nc2ccc(Sc3ccc(NC(=O)Nc4cc(C(F)(F)F)ccc4F)cc3)cc2[nH]1 : does inhibition equal or exceed 6%?
Criterion met

In plain terms: is recorded inhibition at least 6% for COc1cc2ncn(-c3cc(OCCc4ccccc4)c(C(N)=O)s3)c2cc1OC ?
Criterion met

Please check the record CCC(=O)Nc1ccc(C)c(-c2ccc(C(=O)NCC3CC3)cc2)c1 and state if its inhibition is at or above 6%.
Criterion not met

Textbook exercise: given the entry Fc1ccc(-c2ncn(C3CCNCC3)c2-c2ccnc(Oc3ccc(Oc4ccccc4)cc3)n2)cc1 , state whether its inhibition is greater than or equal to 6%.
Criterion met

Does CCc1nccc2c1nc(-c1nonc1N)n2CC have a reported inhibition of at least 6%?
Criterion not met

For this compound, is measured inhibition 6% or higher? CCc1cccc(CC)c1/C=C/c1cncc(C(=O)NC)c1
Criterion not met

Hi team, for Clc1ccc(CNc2nccc(-c3cnn4ncccc34)n2)cc1 , is the recorded inhibition at or above 6%?
Criterion not met

API: above_or_equal(metric=inhibition, cutoff=6%) for item NCc1ccc(-n2c(-c3nonc3N)nc3cnccc32)cc1
Criterion met

Please tell me: is the compound NS(=O)(=O)c1ccc(N/N=C2\C(=O)Nc3ccc(-c4cnco4)cc32)cc1 at or over 6% in terms of inhibition?
Criterion met

Does the compound COc1cc(Nc2ncc(-c3ccccc3)o2)cc(OC)c1OC have recorded inhibition that is 6% or more?
Criterion met

Hello, I need to know if CCN(CC)Cc1ccc(Nc2nccc(-c3cnn4ncccc34)n2)cc1 has measured inhibition not below 6%. Thanks!
Criterion met

Has Fc1ccc(-c2c(-c3ccncc3)nc3n2CCS3)cc1 a recorded inhibition greater than or equal to 6%?
Criterion not met

Item C/C(Nc1ccc(S(N)(=O)=O)cc1)=C1/C(=O)Nc2ccccc21 with inhibition of 6% or above?
Criterion met

inhibition >= 6% for O=C(Nc1n[nH]c2nc(-c3ccco3)ccc12)C1CC1 ?
Criterion met

Please indicate if the recorded inhibition for c1ccc(Oc2ccc(Nc3ncc(-c4ccccc4)o3)cc2)cc1 meets or exceeds 6%.
Criterion met

Is it the case that COc1cc(Nc2ncc3c(C)nc(-c4cccc(Oc5ccccc5)c4)n3n2)cc(OC)c1OC has inhibition reaching or exceeding 6%?
Criterion not met

Assess whether reported inhibition for CCS(=O)(=O)c1ccc(OC)c(Nc2ncc(-c3cccc(-c4ccccc4F)c3)o2)c1 sits at 6% or higher.
Criterion met

Reported inhibition at or above 6%? COc1cc2ncn(-c3cc(OCc4cccs4)c(C(N)=O)s3)c2cc1OC
Criterion met

Assess whether reported inhibition for O=C(Nc1n[nH]c2cc(-c3cc(F)ccc3F)ccc12)C1CC1 sits at 6% or higher.
Criterion met

###

- target: Protein kinase C theta type (Homo sapiens);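 further: reported figure is the mean percent inhibition of PKC-theta, from the GSK PKIS screen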
- assay.setup: at 0.1 µM
measured.property: inhibition (%)
Output spec: scalar in %, unitless text.

For CCN(CC)Cc1ccc(Nc2nccc(-c3cnn4ncccc34)n2)cc1 the molecule record lists inhibition as 2.37

Input CN(c1ccc(NC(=O)Nc2c(Cl)cccc2Cl)cc1)c1ccnc(Nc2cccc(CS(C)(=O)=O)c2)n1 . Output inhibition: 2.22

# molecule NS(=O)(=O)c1ccc(N/N=C2\C(=O)Nc3ccc(-c4cnco4)cc32)cc1 ; its inhibition = 1.05

Data point: CCS(=O)(=O)c1ccc(OC)c(Nc2ncc(-c3ccccc3Cl)o2)c1 ; inhibition = -0.01

# molecule Cc1ccc(C(=O)NC2CCC2)cc1-c1ccc(C(=O)NCC2CC2)cc1 ; its inhibition = 0.68

Data point: C#Cc1cccc(Nc2ncnc3ccc(OCCCCNCCS(C)(=O)=O)cc23)c1 ; inhibition = 3.71

In plain terms, NC(=O)c1cc(-c2ccc(F)cc2)cc(-c2ccncc2)c1N has a documented inhibition of 1.84

GET /value?item= Fc1ccc(-c2c(-c3ccncc3)nc3n2CCS3)cc1 &field=inhibition returns 1.55

Looking up CN(C)CCCNc1nccc(-c2c(-c3ccc(F)cc3)nn3cc(C(F)(F)F)ccc23)n1 , I found its inhibition recorded as 0.23

Value of inhibition reported for the molecule O=C1NC(=O)C(c2cccc(Cl)c2)=C1Nc1ccc(Cl)c(C(=O)O)c1 is 1.72

So, COc1cc2ncn(-c3cc(OCc4cccs4)c(C(N)=O)s3)c2cc1OC ? Its inhibition was 1.98

Notebook: Nc1nccc(-c2c(-c3ccc(F)cc3)ncn2C2CCC(O)CC2)n1 (stereo not drawn) , inhibition read as -0.81

Query N#Cc1ccc(Oc2nccc(-c3c(-c4ccc(F)cc4)ncn3C3CCNCC3)n2)cc1 yields inhibition of 2.28

###

- target: Ribosomal protein S6 kinase alpha-2 (Homo sapiens);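 further: reported value is the mean percent inhibition of RSK3, from the GSK PKIS screening panel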
- assay.setup: at 0.1 µM
measured.property: inhibition (%)
Number only, in %; omit the unit.

Form field inhibition, entry O=C(NCC1CC1)c1ccc(-c2cccc(C(=O)NC3CC3)c2)cc1 : 0.67

Query COc1cc2ncn(-c3cc(OCc4cccs4)c(C(N)=O)s3)c2cc1OC yields inhibition of 2.98

Looking up Cc1ccc(NC(=O)c2ccoc2)cc1-c1ccc(C(=O)NCC2CC2)cc1 , I found its inhibition recorded as 2
